Attribute: cell viability
# Tested on: P12-Ichikawa
# experiment: cell viability relative to DMSO control; higher = less cytotoxic
# conditions: RPMI 5 mM glucose + 10% FBS; 48 h; 0.19 µM
Please reply with the bare figure in % and do not write the unit itself.

The cases that follow already have their cell viability on record.
compound: CC(C)N(CCCNC(=O)Nc1ccc(C(C)(C)C)cc1)C[C@H]1O[C@@H](n2cc(Br)c3c(N)ncnc32)[C@H](O)[C@@H]1O
quantity measured: cell viability
observed: 87.2

compound: CCOC\1=C(/C(=O)NC2=CC=C(OC3=C(Cl)C(=NC=C3)N)C(=C2)F)C(=O)N(\C=C1)C4=CC=C(F)C=C4
quantity measured: cell viability
observed: 102

compound: COc1cc([C@@H]2c3cc4c(cc3[C@@H](O[C@@H]3O[C@@H]5CO[C@@H](C)O[C@H]5[C@H](O)[C@H]3O)[C@H]3COC(=O)[C@H]23)OCO4)cc(OC)c1O
quantity measured: cell viability
observed: 67.6

compound: COCCNCCCn1c(C(=O)CF)c(-c2ccc(C)cc2)c2c(N)ncnc21
quantity measured: cell viability
observed: 104

compound: CNC(=O)c1cc(Oc2ccc(NC(=O)Nc3ccc(Cl)c(C(F)(F)F)c3)c(F)c2)ccn1
quantity measured: cell viability
observed: 95.6

Please turn your attention to the following entry.
Exercise: Please give the measured cell viability for this compound: Cc1ccc(C)c(OCCCC(C)(C)C(=O)O)c1
Key: 92.9
